Tested on: A549 cells (microtubules and spindles)
Assay: Immunofluorescence staining of tubulin
Assay type: cell-based, human
Details: A549, 24 h; 0.1 nM 21, 100 nM colchicine, 1.5 nM pacritaxel, 500 nM doxorubicin
Endpoint label: microtubules (α-tubulin immunofluorescence)

CCC1=C(O)c2c(oc(-c3csc4ccccc34)cc2=O)C(CC)(CC)C1=O	undetectable
COc1cc2c(c(OC)c1OC)-c1ccc(OC)c(=O)cc1[C@@H](NC(C)=O)CC2	undetectable
COc1cccc2c1C(=O)c1c(O)c3c(c(O)c1C2=O)C[C@@](O)(C(=O)CO)C[C@@H]3O[C@H]1C[C@H](N)[C@H](O)[C@H](C)O1	detectable
CC(=O)O[C@H]1C(=O)[C@@]2(C)[C@H]([C@H](OC(=O)c3ccccc3)[C@]3(O)C[C@H](OC(=O)[C@H](O)[C@@H](NC(=O)c4ccccc4)c4ccccc4)C(C)=C1C3(C)C)[C@]1(OC(C)=O)CO[C@@H]1C[C@@H]2O	detectable
